# target under test: mushroom tyrosinase (Agaricus bisporus, UniProt C7FF04)
# Construct: purchased Sigma Aldrich
# Sequence (C7FF04 1-392): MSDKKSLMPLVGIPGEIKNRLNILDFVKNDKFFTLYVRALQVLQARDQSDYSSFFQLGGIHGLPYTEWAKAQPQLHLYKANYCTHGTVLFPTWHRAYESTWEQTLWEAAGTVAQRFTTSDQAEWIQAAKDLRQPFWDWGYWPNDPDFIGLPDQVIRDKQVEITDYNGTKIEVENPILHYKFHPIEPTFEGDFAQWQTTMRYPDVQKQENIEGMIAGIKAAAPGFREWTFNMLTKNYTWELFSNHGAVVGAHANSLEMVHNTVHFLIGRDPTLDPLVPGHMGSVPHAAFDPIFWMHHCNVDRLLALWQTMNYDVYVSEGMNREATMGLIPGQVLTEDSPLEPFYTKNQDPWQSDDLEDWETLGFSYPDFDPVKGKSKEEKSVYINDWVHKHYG
# assay name: In vitro mushroom tyrosinase inhibition assay (L-DOPA substrate, dopachrome absorbance)
# Format: biochemical
# test context: L-DOPA 0.85 mM substrate, enzyme 30 U/mL, absorbance at 472 nm; read-out: Mushroom tyrosinase inhibition IC50 ± SEM
result type: IC50 (nM)
Value expressed in nM; do not type the unit.

Query: Reported IC50 for CC(=O)c1cccc(NC(=O)COC(=O)/C=C/c2ccc(O)cc2O)c1 : what is it?
Response: 2

* * *

# target under test: mushroom tyrosinase (Agaricus bisporus, UniProt C7FF04)
# Construct: purchased Sigma Aldrich
# assay name: In vitro mushroom tyrosinase inhibition assay (L-DOPA substrate, dopachrome absorbance)
# Format: biochemical
pIC50: −log10 of the molar value.
// rule not met strictly below 4 in pIC50; rule met otherwise

Consider the following illustrative entries.
- molecule: "CC(=O)c1cccc(NC(=O)COC(=O)C=Cc2ccccc2)c1 [Compound 5a]"
  category label: "rule met"
- molecule: "CC(=O)c1cccc(NC(=O)COC(=O)c2ccc(O)cc2)c1 [Compound 3b]"
  category label: "rule not met"
- molecule: "CC(=O)c1cccc(NC(=O)COC(=O)c2ccc(O)cc2O)c1 [Compound 3c]"
  category label: "rule met"

Query: Decide: is the reported value of pIC50 for CC(=O)c1cccc(NC(=O)COC(=O)c2cccc(O)c2)c1 [Compound 3a] equal to or greater than 4?
Response: rule not met

Query: And CC(=O)c1cccc(NC(=O)COC(=O)/C=C/c2ccc(Cl)cc2)c1 [Compound 5d] ?
Response: rule met

Query: And CC(=O)c1cccc(NC(=O)COC(=O)c2cc(O)cc(O)c2)c1 [Compound 3e] ?
Response: rule not met

Query: And CC(=O)c1cccc(NC(=O)COC(=O)/C=C/c2ccc(O)cc2)c1 [Compound 5b] ?
Response: rule not met
